Data provenance: patent US7074789B2

molecular target: Zap-70 (Homo sapiens, UniProt P43403); construct: Kinases are expressed as either kinase domains or full length constructs; made in house; test: Kinase inhibition assay (33P transfer), Zap-70; format: biochemical; conditions: Table 3; read-out: Zap-1
Sequence (P43403 whole entry, species assumed, the tested form may be a part): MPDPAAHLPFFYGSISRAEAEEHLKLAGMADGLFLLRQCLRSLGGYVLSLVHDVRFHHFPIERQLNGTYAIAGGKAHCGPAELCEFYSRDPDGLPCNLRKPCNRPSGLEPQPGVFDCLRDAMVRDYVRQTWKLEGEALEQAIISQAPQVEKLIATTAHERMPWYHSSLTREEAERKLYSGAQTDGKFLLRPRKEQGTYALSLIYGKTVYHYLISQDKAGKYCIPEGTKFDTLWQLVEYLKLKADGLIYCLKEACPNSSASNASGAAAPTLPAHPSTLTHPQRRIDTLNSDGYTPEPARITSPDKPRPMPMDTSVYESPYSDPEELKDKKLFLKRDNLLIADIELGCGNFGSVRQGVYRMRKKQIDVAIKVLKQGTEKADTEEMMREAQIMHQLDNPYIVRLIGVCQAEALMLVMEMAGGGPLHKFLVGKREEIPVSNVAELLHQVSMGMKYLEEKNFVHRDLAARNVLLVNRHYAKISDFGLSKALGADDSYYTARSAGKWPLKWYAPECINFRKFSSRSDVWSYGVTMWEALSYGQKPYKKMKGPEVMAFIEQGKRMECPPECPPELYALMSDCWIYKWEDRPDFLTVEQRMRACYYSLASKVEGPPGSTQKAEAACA
pIC50: −log10 of the molar value.
Endpoint Label: pIC50

[
  {
    "Compound Structure String": "COc1cc(Nc2ncnc(-n3c(N)nc4ccccc43)n2)cc(OC)c1OC",
    "Endpoint Label": "pIC50",
    "Observed Result": "< 4.94"
  },
  {
    "Compound Structure String": "COc1cc(Nc2ncnc(-n3c(NCCCCO)nc4ccccc43)n2)cc(OC)c1OC",
    "Endpoint Label": "pIC50",
    "Observed Result": "< 5.01"
  },
  {
    "Compound Structure String": "COCCOc1ccc(Nc2ncnc(-n3c(N)nc4ccccc43)n2)cc1OC",
    "Endpoint Label": "pIC50",
    "Observed Result": "< 4.96"
  },
  {
    "Compound Structure String": "COc1cc(Nc2ncnc(-n3ccc4cccnc43)n2)cc(OC)c1OC",
    "Endpoint Label": "pIC50",
    "Observed Result": "< 4.92"
  },
  {
    "Compound Structure String": "NC(=O)c1cccc(Nc2ncnc(Nc3cc(-c4ccco4)n[nH]3)n2)c1",
    "Endpoint Label": "pIC50",
    "Observed Result": "< 4.91"
  }
]

// for each compound below, give its pIC50
1. C#Cc1cccc(Nc2ncnc(-n3c(=O)[nH]c4ccccc43)n2)c1
2. O=c1[nH]c2ccccc2n1-c1ncnc(Nc2ccc(NS(=O)(=O)c3ccc([N+](=O)[O-])cc3)cc2)n1

< 4.86
< 5.05

// for each compound below, give its pIC50
1. O=[N+]([O-])c1cccc(Nc2ncnc(-c3cccs3)n2)c1
2. COc1cc(Nc2ncnc(Nc3ccc(C)c(O)c3)n2)cc(OC)c1OC
3. COc1cc(Nc2ncnc(-n3ccc4cc(Cl)ccc43)n2)cc(OC)c1OC
4. COc1cc(Nc2ncnc(N(CC(=O)OC(C)(C)C)c3ccc4c(c3)OCO4)n2)cc(OC)c1OC
5. COc1cc(Nc2ncnc(-n3ncc4ccccc43)n2)cc(OC)c1OC
6. COc1cc(Nc2ncnc(-n3c(Nc4cc(C)n[nH]4)nc4ccccc43)n2)cc(OC)c1OC
7. COc1cc(Nc2ncnc(Nc3ccccc3C)n2)cc(OC)c1OC
8. COc1cc(Nc2ncnc(Nc3ccc(OCc4ccccc4)cc3)n2)cc(OC)c1OC

< 4.82
< 4.93
< 4.96
< 5.06
< 4.92
5.30 to 6.07
< 4.91
5.12 to 5.28

// for each compound below, give its pIC50
1. Oc1cccc(Nc2ncnc(Nc3ccc(OCc4ccccc4)cc3)n2)c1
2. COc1ccc(Nc2ncnc(Nc3ccc(Oc4ccccc4)cc3)n2)cc1OC
3. Oc1ccc(Nc2ncnc(-c3ccccc3)n2)cc1

["5.04 to 5.21", "5.07 to 5.24", "< 4.77"]

* * *

biological target: AKT (Homo sapiens, UniProt Q9Y243); construct: Kinases are expressed as either kinase domains or full length constructs; made in house; assay: Kinase inhibition assay (33P transfer), AKT; assay type: biochemical; conditions: Table 2, class symbols A-E; read-out: AKT3-1
Sequence (Q9Y243 whole entry, the tested form may be a part): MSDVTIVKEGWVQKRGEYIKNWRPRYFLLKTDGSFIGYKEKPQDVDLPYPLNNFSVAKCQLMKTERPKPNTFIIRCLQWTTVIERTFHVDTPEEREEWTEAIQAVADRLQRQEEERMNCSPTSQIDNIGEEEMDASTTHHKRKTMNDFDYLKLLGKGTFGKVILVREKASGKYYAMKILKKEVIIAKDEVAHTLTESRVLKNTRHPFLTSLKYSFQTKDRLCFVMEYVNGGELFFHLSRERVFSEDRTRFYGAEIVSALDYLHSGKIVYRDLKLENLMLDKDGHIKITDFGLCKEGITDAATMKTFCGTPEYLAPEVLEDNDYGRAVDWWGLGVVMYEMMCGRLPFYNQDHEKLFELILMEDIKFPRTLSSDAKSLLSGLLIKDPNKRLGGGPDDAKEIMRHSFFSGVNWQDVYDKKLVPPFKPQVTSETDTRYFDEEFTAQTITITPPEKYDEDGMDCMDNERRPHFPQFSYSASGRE
Kindly state IC50 for each of the entries shown.

Answered examples (6):
[
  {
    "Compound Structure String": "COc1ccc(Nc2ncnc(N(C)[C@H](C)c3ccccc3)n2)cc1OC",
    "IC50": "> 12.3 µM"
  },
  {
    "Compound Structure String": "O=C(O)c1cccc(Nc2ncnc(-n3c(NCc4ccccc4)nc4ccccc43)n2)c1",
    "IC50": "> 10.3 µM"
  },
  {
    "Compound Structure String": "COc1cc(Nc2ncnc(-c3cccnc3NCc3cccc4ccccc34)n2)cc(OC)c1OC",
    "IC50": "> 9.1 µM"
  },
  {
    "Compound Structure String": "COc1ccc(Nc2ncnc(N(C)c3ccc(OC(F)(F)F)cc3)n2)cc1OC",
    "IC50": "> 10.7 µM"
  },
  {
    "Compound Structure String": "COc1cccc(Nc2ncccc2-c2ncnc(Nc3cc(OC)c(OC)c(OC)c3)n2)c1",
    "IC50": "> 9.77 µM"
  },
  {
    "Compound Structure String": "COC(=O)c1ccc(-c2cc(Nc3ncnc(NCc4ccccc4OC)n3)[nH]n2)cc1",
    "IC50": "> 10.4 µM"
  }
]

// for each compound below, give its IC50
1. COc1cc(Nc2ncnc(-c3cccnc3Nc3ccc4c(c3)CCC4)n2)cc(OC)c1OC
2. COC(=O)c1ccc(-c2cc(Nc3ncnc(NCCc4c[nH]c5ccccc45)n3)[nH]n2)cc1

1. > 9.56 µM
2. > 9.9 µM

* * *

Kindly state pIC50 for each of the entries shown.
target: EGFR (Homo sapiens, UniProt P00533); construct: Kinases are expressed as either kinase domains or full length constructs; made in house; test: Kinase inhibition assay (33P transfer), EGFR; assay type: biochemical; conditions: Table 2, kinase inhibition class; read-out: EGFR-1
Sequence (P00533 25-1210, species assumed): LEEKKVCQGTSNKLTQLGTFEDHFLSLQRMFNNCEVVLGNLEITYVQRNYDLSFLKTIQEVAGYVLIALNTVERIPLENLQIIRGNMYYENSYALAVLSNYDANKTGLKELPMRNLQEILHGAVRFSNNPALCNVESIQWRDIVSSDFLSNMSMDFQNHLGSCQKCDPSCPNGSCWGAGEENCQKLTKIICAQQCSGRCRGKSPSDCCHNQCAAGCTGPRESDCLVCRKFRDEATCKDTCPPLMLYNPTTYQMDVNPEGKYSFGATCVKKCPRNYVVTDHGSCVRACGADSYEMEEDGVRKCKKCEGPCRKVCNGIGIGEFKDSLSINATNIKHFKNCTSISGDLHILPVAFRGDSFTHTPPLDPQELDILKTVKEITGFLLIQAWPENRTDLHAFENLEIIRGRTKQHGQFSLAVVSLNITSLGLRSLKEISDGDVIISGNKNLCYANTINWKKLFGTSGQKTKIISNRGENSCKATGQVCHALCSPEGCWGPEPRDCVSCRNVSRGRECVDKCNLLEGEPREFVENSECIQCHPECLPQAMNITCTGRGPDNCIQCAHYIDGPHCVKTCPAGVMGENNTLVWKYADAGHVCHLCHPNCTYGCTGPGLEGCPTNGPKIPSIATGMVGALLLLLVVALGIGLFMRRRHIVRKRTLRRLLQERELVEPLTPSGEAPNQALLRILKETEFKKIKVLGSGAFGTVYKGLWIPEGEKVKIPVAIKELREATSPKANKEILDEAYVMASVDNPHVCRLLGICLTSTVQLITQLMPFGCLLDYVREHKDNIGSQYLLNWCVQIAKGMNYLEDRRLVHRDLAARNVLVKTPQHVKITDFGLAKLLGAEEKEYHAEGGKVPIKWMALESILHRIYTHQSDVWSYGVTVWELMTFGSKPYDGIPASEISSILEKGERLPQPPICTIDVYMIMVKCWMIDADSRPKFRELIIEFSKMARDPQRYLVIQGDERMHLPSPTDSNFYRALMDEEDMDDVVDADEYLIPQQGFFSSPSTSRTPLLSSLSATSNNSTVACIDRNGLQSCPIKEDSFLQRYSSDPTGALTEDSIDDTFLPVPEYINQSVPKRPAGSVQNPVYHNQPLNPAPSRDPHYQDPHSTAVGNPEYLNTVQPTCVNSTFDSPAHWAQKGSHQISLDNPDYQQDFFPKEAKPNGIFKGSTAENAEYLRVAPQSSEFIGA
pIC50: −log10 of the molar value.

[
  {
    "Compound Structure String": "CC(=O)Nc1ccc(Nc2ncnc(-c3cccs3)n2)cc1",
    "Endpoint Label": "pIC50",
    "Observed Result": "< 4.84"
  },
  {
    "Compound Structure String": "COc1ccc(CNc2nc3ccccc3n2-c2ncnc(Nc3cccc(Cc4nnn[nH]4)c3)n2)cc1",
    "Endpoint Label": "pIC50",
    "Observed Result": "5.32 to 6.10"
  },
  {
    "Compound Structure String": "NC(=O)c1ccc(Nc2ncnc(-c3ccccc3)n2)cc1",
    "Endpoint Label": "pIC50",
    "Observed Result": "< 4.81"
  },
  {
    "Compound Structure String": "COc1cc(Nc2ncnc(-n3cc(C)c4ccccc43)n2)cc(OC)c1OC",
    "Endpoint Label": "pIC50",
    "Observed Result": "< 4.94"
  }
]

// for each compound below, give its pIC50
1. COc1cc(Nc2ncnc(N3CCN(c4ccccn4)CC3)n2)cc(OC)c1OC
2. CCN(CC)c1ccc(Nc2ncnc(N3CCCc4cc(C)ccc43)n2)cc1

< 4.97
< 4.94

* * *

molecular target: Zap-70 (Homo sapiens); construct: Kinases are expressed as either kinase domains or full length constructs; made in house; assay: Kinase inhibition assay (33P transfer), Zap-70; type: biochemical; details: Table 3; read-out: Zap-1
Endpoint Label: IC50

Answered examples (5):
[
  {
    "Compound Structure String": "COc1cc(Nc2ncnc(-c3ccc(N4CCOCC4)nc3)n2)cc(OC)c1OC",
    "Observed Result": "> 10.6 µM"
  },
  {
    "Compound Structure String": "COc1cc(Nc2ncnc(Nc3[nH]ncc3-c3cccs3)n2)cc(OC)c1OC",
    "Observed Result": "> 10.6 µM"
  },
  {
    "Compound Structure String": "COc1cc(Nc2ncnc(N3CCc4ccc([N+](=O)[O-])cc43)n2)cc(OC)c1OC",
    "Observed Result": "> 10.6 µM"
  },
  {
    "Compound Structure String": "NC(=O)c1ccc(Nc2ncnc(-n3c(=O)[nH]c4ccccc43)n2)cc1",
    "Observed Result": "> 13 µM"
  },
  {
    "Compound Structure String": "Nc1ncnc(Nc2ccc(C3CCCCC3)cc2)n1",
    "Observed Result": "> 16.7 µM"
  }
]

// for each molecule below, give its IC50
1. COc1cc(Nc2ncnc(-c3ccnc(NCCCN)c3)n2)cc(OC)c1OC
2. COc1ccc2c(ccn2-c2ncnc(Nc3cc(OC)c(OC)c(OC)c3)n2)c1
3. COc1ccc(Nc2ncnc(Nc3ccc(N(C)C)cc3)n2)cc1OC
4. COc1cc(Nc2ncnc(Nc3ccc(C)c(N)c3)n2)cc(OC)c1OC

1: > 10.9 µM; 2: > 11 µM; 3: > 12.3 µM; 4: > 11.8 µM

* * *

molecular target: Zap-70 (Homo sapiens); construct: Kinases are expressed as either kinase domains or full length constructs; made in house; assay: Kinase inhibition assay (33P transfer), Zap-70; assay type: biochemical; conditions: Table 3; read-out: Zap-1
Kindly state IC50 for each of the entries shown.

[
  {
    "Compound Structure String": "COc1cc(Nc2ncnc(-n3c(N)nc4ccccc43)n2)cc(OCCN2CCOCC2)c1OC",
    "IC50": "> 9.14 µM"
  },
  {
    "Compound Structure String": "COc1ccc(Nc2ncnc(Nc3ccc(OCc4ccccc4)cc3)n2)cc1O",
    "IC50": "> 10.8 µM"
  },
  {
    "Compound Structure String": "COc1cc(Nc2ncnc(Nc3nccs3)n2)cc(OC)c1OC",
    "IC50": "> 12.5 µM"
  },
  {
    "Compound Structure String": "COc1cc(Nc2ncnc(-n3c(=O)[nH]c4ccccc43)n2)cc(OC)c1OC",
    "IC50": "> 11.4 µM"
  },
  {
    "Compound Structure String": "Nc1ncnc(Nc2ccc3c(c2)OCO3)n1",
    "IC50": "15.1 to 19.5 µM"
  }
]

// for each compound below, give its IC50
1. COc1cc(Nc2ncnc(Nc3ccc(O)cc3Cl)n2)cc(OC)c1OC
2. COc1cc(Nc2ncnc(-n3c(NCCO)nc4ccccc43)n2)cc(OC)c1OC
3. COc1cc(Nc2ncnc(Nc3cccc(C)c3)n2)cc(OC)c1OC
4. c1csc(-c2ncnc(Nc3ccc(N4CCOCC4)cc3)n2)c1
5. O=c1[nH]c2ccccc2n1-c1ncnc(Nc2cccc(Cl)c2)n1
6. COc1cc(Nc2ncnc(N(Cc3ccccc3)c3nc4ccccc4[nH]3)n2)cc(OC)c1OC
7. COC(=O)c1cccc(Nc2nc3ccccc3n2-c2ncnc(Nc3cc(OC)c(OC)c(OC)c3)n2)c1

1: > 11.1 µM; 2: > 10.3 µM; 3: 9.53 to 12.2 µM; 4: > 13.3 µM; 5: > 13.3 µM; 6: > 9.31 µM; 7: > 8.53 µM
